Test: Selectivity index, ratio of CC50 for human SH-SY5Y cells to EC50 for Enterovirus D68 US/KY/14-18953 infected in human SH-SY5Y cells
Format: toxicity, cell-based
Settings: read-out: Ratio CC50/EC50
quantityName: selectivity ratio

Request: What measured selectivity ratio goes with O=C(NCCN1CCCC1)c1cc(-c2cccs2)nc2ccccc12 ?
Response: 933

* * *

Experiment: Selectivity index, ratio of CC50 for human RD cells to EC50 for Enterovirus D68 […] infected in human RD cells
Type: toxicity, cell-based
Conditions: read-out: Ratio CC50/EC50
quantityName: selectivity ratio
Answers are plain numbers.

Request: // lookup selectivity ratio for O=C(NCCN1CCCC1)c1cc(-c2cccs2)nc2ccccc12
Response: 571

* * *

Test system: A549
Test: Cytotoxicity against human A549 cells after 3 days by neutral red dye-based photometric method
Assay type: cell-based
Conditions: a549, 72 h
Provide the recorded CC50 for the entries that follow.
One number for each entry, in µM.

Worked examples follow.
CCCCOc1cc(C(=O)NCCN(CC)CC)c2ccccc2n1 [DIBUCAINE] = 37.5
CN(C)CCNC(=O)c1cc(-c2ccccc2)nc2ccccc12 = 121
CN(C)CCNC(=O)c1cc(-c2cccs2)nc2ccccc12 = 98.8

As a next step, examine the molecule that follows.
Request: # CC50 lookup, item O=C(NCCN1CCCC1)c1cc(-c2cccs2)nc2ccccc12
Response: 83.2

* * *

Assign EC50 to each entry below.
Tested on: enterovirus D68
Assay: Antiviral activity against Enterovirus D68 US/IL/14-18956 infected in human RD cells assessed as inhibition of virus-induced cytopathic effect incubated for 5 mins under shaking condition and measured after 3 days by neutral red dye-based photometric method
Assay type: functional, organism-based
Details: Enterovirus D, US/IL/14-18956, RD
Answers are plain numbers, in nM.

Please report EC50 for every entry that follows.
1. O=C(NCCN1CCCC1)c1cc(-c2cccs2)nc2ccccc12
2. CN(C)CCNC(=O)c1cc(-c2cccs2)nc2ccccc12
3. CN(C)CCNC(=O)c1cc(-c2ccccc2)nc2ccccc12

Response:
1. 50
2. 60
3. 200

* * *

Please provide measured EC50 for the entries that follow.
Tested on: enterovirus D68
Assay: Antiviral activity against Enterovirus D68 US/MO/14-18949 infected in human RD cells assessed as inhibition of virus-induced cytopathic effect incubated for 5 mins under shaking condition and measured after 3 days by neutral red dye-based photometric method
Assay type: functional, organism-based
Settings: Enterovirus D, US/MO/14-18949, RD
Give bare numbers, in nM.

Some solved cases for reference:
CN(C)CCNC(=O)c1cc(-c2cccs2)nc2ccccc12 = 50
O=C(NCCN1CCCC1)c1cc(-c2cccs2)nc2ccccc12 = 50

List EC50 for every entry below, keeping the order given.
1. CCCCOc1cc(C(=O)NCCN(CC)CC)c2ccccc2n1 [DIBUCAINE]
2. CN(C)CCNC(=O)c1cc(-c2ccccc2)nc2ccccc12

Response:
1: 2900; 2: 600

* * *

Experiment: Selectivity index, ratio of CC50 for human RD cells to EC50 for Enterovirus D68 US/IL/14-18956 infected in human RD cells
Format: toxicity, cell-based
Conditions: read-out: Ratio CC50/EC50
quantityName: selectivity ratio
Answers are plain numbers.

Request: selectivity ratio lookup needed for O=C(NCCN1CCCC1)c1cc(-c2cccs2)nc2ccccc12 , thanks.
Response: 800

* * *

System: enterovirus D68
Experiment: Antiviral activity against Enterovirus D68 US/KY/14-18953 infected in human RD cells assessed as inhibition of virus-induced cytopathic effect incubated for 5 mins under shaking condition and measured after 3 days by neutral red dye-based photometric method
Assay type: functional, organism-based
Details: Enterovirus D, US/KY/14-18953, RD
Assignment: determine reported EC50 for the given compounds.
Answers are plain numbers, in nM.

Illustrative cases are given below, each with its answer.
CCN(CC)CCNC(=O)c1cc(-c2ccnn2C)nc2ccccc12 = 36300
O=C(NCCN1CCCC1)c1cc(-c2cccs2)nc2ccccc12 = 60
CC(C)Oc1cc(C(=O)NCCN)c2ccccc2n1 = 3500

Now consider a different compound.
Request: # lookup: EC50 of CCN(CC)CCNC(=O)c1cc(/C=C/c2ccccc2)nc2ccccc12
Response: 800
